Biological target: SmcR (Vibrio vulnificus)
Sequence (Q9L8G8 entry or part of it): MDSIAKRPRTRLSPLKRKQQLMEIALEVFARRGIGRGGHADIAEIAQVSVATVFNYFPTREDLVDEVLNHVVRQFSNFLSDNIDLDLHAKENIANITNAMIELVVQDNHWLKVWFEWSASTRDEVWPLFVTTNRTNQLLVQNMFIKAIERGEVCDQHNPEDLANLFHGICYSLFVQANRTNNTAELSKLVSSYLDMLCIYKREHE
Test: ITC analysis of SmcR interaction with inhibitors
Format: binding, V. vulnificus
Settings: read-out: Dissociation constant (Kd)
pKd: −log10 of the molar value.

| Molecule | pKd |
| --- | --- |
| O=S(=O)(c1cccs1)n1ccc(-c2ccccc2)n1 [Compound 10B] | 6.64 |

###

Biological target: V. campbellii LuxR (Vibrio harveyi, UniProt P21308)
Construct: expressed in transfected cells; host or cells: E. coli DH10B with pKM699 and reporter pJV064
Sequence (P21308 whole entry): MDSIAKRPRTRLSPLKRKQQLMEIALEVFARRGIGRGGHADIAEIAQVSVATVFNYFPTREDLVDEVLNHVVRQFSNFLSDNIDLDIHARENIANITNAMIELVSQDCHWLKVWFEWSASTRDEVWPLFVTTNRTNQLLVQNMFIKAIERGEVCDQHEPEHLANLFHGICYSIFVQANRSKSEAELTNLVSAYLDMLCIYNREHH
Test: E. coli dual-color bioassay (pKM699 LuxR, pJV064 reporter)
Format: cell-based
Conditions: Table 2; titration, 16 hours; read-out: Inhibition (IC50) of GFP production by LuxR in E. coli bioassay
pIC50: −log10 of the molar value.
Reported pIC50 values for the following compounds.
Measured quantity: pIC50

| Compound | Measured quantity | Measured result |
| --- | --- | --- |
| O=S(=O)(c1ccc(Br)s1)n1cccn1 [Qstatin, reference compound] | pIC50 | 5.30 |
| FC(F)(F)C1CN(c2nc(-c3ccccc3)cs2)CCO1 (centres unmarked) [P2065 E16] | pIC50 | 5.28 |

###

Molecular target: SmcR (Vibrio vulnificus)
Test: ITC analysis of SmcR interaction with inhibitors
Format: binding, V. vulnificus
Details: 25° C., read-out: Kd
pKd: −log10 of the molar value.
Measured pKd, listed per entry for reference.

| Molecule | Target under test | pKd |
| --- | --- | --- |
| O=S(=O)(c1cccs1)n1ccc(-c2ccccc2)n1 [Compound 10B] | SmcR (Vibrio vulnificus) | 6.64 |
| O=S(=O)(c1ccc(Br)s1)n1cccn1 [Qstatin, reference compound] | SmcR (Vibrio vulnificus) | 6.13 |

###

Biological target: V. campbellii LuxR (Vibrio harveyi, UniProt P21308)
Construct: expressed in transfected cells; host or cells: E. coli DH10B with pKM699 and reporter pJV064
Assay: E. coli dual-color bioassay (pKM699 LuxR, pJV064 reporter)
Type: cell-based
Conditions: GFP and mCherry reporters
Excerpt: Previously, we developed a bioassay that consists of a dual-color fluorescent reporter plasmid that reports both LuxR activities: the luxCDABE promoter is activated by LuxR and drives expression of gfp, and the VIBHAR_05222 promoter is repressed by LuxR and drives expression of mCherry (van Kessel et al., 2013b) (FIG. 2A). We used this reporter plasmid in an E. coli strain that also contains a plasmid expressing LuxR from its native promoter. […]
Measured quantity: Inhibition of LuxR in the E. coli bioassay (in words)

| Compound | Measured result |
| --- | --- |
| O=S(=O)(c1ccc(Cl)s1)n1ccc(-c2ccccc2)n1 [Compound 10C] | most potent |
| O=S(=O)(c1ccc(Br)s1)n1ccc(-c2ccccc2)n1 [Compound 10A] | most potent |
| O=S(=O)(c1cccs1)n1ccc(-c2ccccc2)n1 [Compound 10B] | most potent |

###

System: PluxC-gfp reporter in V. parahaemolyticus
Experiment: PluxC-gfp reporter in V. parahaemolyticus strains
Conditions: Vibrio parahaemolyticus, read-out: Inhibition (IC50) of the PluxC-gfp reporter, Vpara D4
Measured quantity: IC50 (µM)

| Molecule | Measured result |
| --- | --- |
| O=C(c1ccc(COc2ccc(Cl)cc2)o1)N1CCN(Cc2ccc3c(c2)OCO3)CC1 | 6.4 |
| O=S(=O)(c1ccc(Cl)s1)n1ccc(-c2ccccc2)n1 [Compound 10C] | 1.28 |
| O=S(=O)(c1ccc(Br)s1)n1cccn1 [Qstatin, reference compound] | 3 |
| O=S(=O)(c1ccc(Br)s1)n1ccc(-c2ccccc2)n1 [Compound 10A] | 0.87 |
| Cc1ccn(S(=O)(=O)c2ccc(Cl)s2)n1 | 4.5 |

###

# IC50 annotations
Test system: PluxC-gfp reporter in V. parahaemolyticus
Assay: PluxC-gfp reporter in V. parahaemolyticus strains
Conditions: Vibrio parahaemolyticus, read-out: Inhibition (IC50) of the PluxC-gfp reporter, Vpara D4
Measured quantity: IC50 (µM)

| Compound structure | Target under test | Measured result |
| --- | --- | --- |
| Cc1ccn(S(=O)(=O)c2ccc(Br)s2)n1 | PluxC-gfp reporter in V. parahaemolyticus | 2.4 |
| O=S(=O)(c1cccs1)n1cccc1 | PluxC-gfp reporter in V. parahaemolyticus | 3.5 |
| Cc1ccn(S(=O)(=O)c2cccs2)n1 | PluxC-gfp reporter in V. parahaemolyticus | 8.4 |

###

Test system: PluxC-gfp reporter in V. vulnificus
Test: PluxC-gfp reporter in V. vulnificus strains
Conditions: Vibrio vulnificus, read-out: Inhibition (IC50) of the PluxC-gfp reporter, Vvul YJ016
Measured quantity: IC50 (nM)

| Molecule | Target under test | Measured quantity | Units text | Measured result |
| --- | --- | --- | --- | --- |
| O=S(=O)(c1ccc(Br)s1)n1cccc1 | PluxC-gfp reporter in V. vulnificus | IC50 | nM | 1300 |
| O=S(=O)(c1cccs1)n1ccc(-c2ccccc2)n1 [Compound 10B] | PluxC-gfp reporter in V. vulnificus | IC50 | nM | 3.78 |
| O=S(=O)(c1ccc(Cl)s1)n1ccc(-c2ccccc2)n1 [Compound 10C] | PluxC-gfp reporter in V. vulnificus | IC50 | nM | 5.46 |
| O=S(=O)(c1ccc(Br)s1)n1cccn1 [Qstatin, reference compound] | PluxC-gfp reporter in V. vulnificus | IC50 | nM | 900 |

###

# reported IC50; entries follow
Test system: PluxC-gfp reporter in V. coralliilyticus
Assay: PluxC-gfp reporter in V. coralliilyticus strains
Conditions: read-out: Inhibition (IC50) of the PluxC-gfp reporter, Vcoral OCN 008
Measured quantity: IC50 (µM)

| Molecule | Measured quantity | Measured result |
| --- | --- | --- |
| O=S(=O)(c1ccccc1)n1cccn1 [Compound 1E, 1-(phenylsulfonyl)-1H-pyrazole] | IC50 | 49.2 |
| O=S(=O)(c1cccs1)n1cccc1 [Compound 3B, 1-(thiophen-2-ylsulfonyl)-1H-pyrrole] | IC50 | 39.2 |
| O=S(=O)(c1ccc(Cl)s1)n1cccn1 [Compound 1C] | IC50 | 9.1 |
| O=S(=O)(c1ccc(Cl)s1)n1cccc1 [Compound 3C] | IC50 | 1.3 |
| Cc1ccn(S(=O)(=O)c2cccs2)n1 [Compound 8B] | IC50 | 26.1 |
| O=S(=O)(c1ccc(Br)s1)n1cccc1 [Compound 3A] | IC50 | 23.1 |
| O=S(=O)(c1ccc(Br)s1)n1ccc(-c2ccccc2)n1 [Compound 10A] | IC50 | 2.09 |
| O=S(=O)(c1ccc(Br)s1)n1cccn1 [Qstatin, reference compound] | IC50 | 11.6 |
| O=S(=O)(c1ccc(Cl)s1)n1ccc(-c2ccccc2)n1 [Compound 10C] | IC50 | 1.07 |
| O=C(c1ccc(COc2ccc(Cl)cc2)o1)N1CCN(Cc2ccc3c(c2)OCO3)CC1 [P0053 I18] | IC50 | 18.9 |
| Cc1ccn(S(=O)(=O)c2ccc(Br)s2)n1 [Compound 8A] | IC50 | 4.2 |
| O=S(=O)(c1cccs1)n1cccn1 [Compound 1B, 1-(thiophen-2-ylsulfonyl)-1H-pyrazole] | IC50 | 55.7 |
| Cc1ccn(S(=O)(=O)c2ccc(Cl)s2)n1 [Compound 8C] | IC50 | 2.7 |
| O=S(=O)(c1cccs1)n1ccc(-c2ccccc2)n1 [Compound 10B] | IC50 | 1.43 |

###

Test system: PluxC-gfp reporter in V. campbellii
Assay: PluxC-gfp reporter in V. campbellii strains
Settings: Vibrio campbellii, read-out: Inhibition (IC50) of the PluxC-gfp reporter, Vcamp BB120
Measured quantity: IC50 (µM)

| Molecule | Measured quantity | Measured result |
| --- | --- | --- |
| O=S(=O)(c1ccc(Cl)s1)n1ccc(-c2ccccc2)n1 [Compound 10C] | IC50 | 0.71 |
| O=S(=O)(c1ccc(Br)s1)n1ccc(-c2ccccc2)n1 [Compound 10A] | IC50 | 0.58 |
| O=S(=O)(c1ccc(Br)s1)n1cccn1 [Qstatin, reference compound] | IC50 | 4 |
| Cc1ccn(S(=O)(=O)c2cccs2)n1 [Compound 8B] | IC50 | 32.4 |
| Cc1ccn(S(=O)(=O)c2ccc(Br)s2)n1 [Compound 8A] | IC50 | 3.8 |

###

Tested on: PluxC-gfp reporter in V. vulnificus
Test: PluxC-gfp reporter in V. vulnificus strains
Settings: Vibrio vulnificus, read-out: IC50 values for all three V. vulnificus clinical isolates, three clinical isolates

| Molecule | IC50 |
| --- | --- |
| O=S(=O)(c1cccs1)n1ccc(-c2ccccc2)n1 [Compound 10B] | 2 to 30 nM |

###

Measured pIC50 values are reported for all entries that follow.
Biological target: V. campbellii LuxR (Vibrio harveyi, UniProt P21308)
Construct: expressed in transfected cells; host or cells: E. coli DH10B with pKM699 and reporter pJV064
Assay: E. coli dual-color bioassay (pKM699 LuxR, pJV064 reporter)
Assay type: cell-based
Conditions: read-out: IC50 in the bioassay (approximate)
pIC50: −log10 of the molar value.

| Molecule | pIC50 |
| --- | --- |
| O=S(=O)(c1ccc(Br)s1)n1ccc(-c2ccccc2)n1 [Compound 10A] | 5.70 to 6.00 |
| O=S(=O)(c1ccc(Cl)s1)n1ccc(-c2ccccc2)n1 [Compound 10C] | 5.70 to 6.00 |
| O=S(=O)(c1ccc(Br)s1)N1CCCC1 | ~4.46 |
| Cc1ccn(S(=O)(=O)c2ccc(Br)s2)n1 | 4.70 to 5.00 |
| Cc1ccn(S(=O)(=O)c2ccc(Cl)s2)n1 | 4.70 to 5.00 |
| O=S(=O)(c1cccs1)n1ccc(-c2ccccc2)n1 [Compound 10B] | 5.70 to 6.00 |

meta.source: patent US20230257373A1
